Please respond with reported self-splicing fitness (ln) for every item in the list.
assay: self-splicing fitness, log relative to wild type (ln ratio); higher = more splicing; Tetrahymena group I intron in knt gene, E. coli kanamycin selection, DiMSum; sequences stand for … in CUCUCU…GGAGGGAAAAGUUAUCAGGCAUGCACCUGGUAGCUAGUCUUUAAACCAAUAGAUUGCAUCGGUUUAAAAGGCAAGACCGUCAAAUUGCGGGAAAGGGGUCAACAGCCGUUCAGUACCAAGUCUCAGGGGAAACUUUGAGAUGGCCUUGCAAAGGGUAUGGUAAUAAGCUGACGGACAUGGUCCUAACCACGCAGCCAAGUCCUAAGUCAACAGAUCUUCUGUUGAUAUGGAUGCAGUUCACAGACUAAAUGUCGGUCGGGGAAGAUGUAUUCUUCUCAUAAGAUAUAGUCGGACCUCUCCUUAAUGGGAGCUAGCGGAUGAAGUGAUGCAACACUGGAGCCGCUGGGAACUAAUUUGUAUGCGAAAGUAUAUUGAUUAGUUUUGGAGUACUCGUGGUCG; settings: 37 °C;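 further: selection with 25 µg/mL kanamycin versus none on LB agar overnight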
// no unit, no text: just the number

## Input Looking for the measured self-splicing fitness (ln) of GAACAGCAAUAUUACGUUCU , can you help?
## Output -3.63

## Input Looking for the measured self-splicing fitness (ln) of UAUAAGCAAUAUUACGCGGC , can you help?
## Output -2.92

## Input Looking for the measured self-splicing fitness (ln) of AUCGAGCAAUAUUACGUUCU , can you help?
## Output -1

## Input Looking for the measured self-splicing fitness (ln) of CACUAGCAAUAUUACGUCGU , can you help?
## Output -1.76

## Input Looking for the measured self-splicing fitness (ln) of UAAGAGCAAUAUUACGGGAG , can you help?
## Output -1.83

## Input Looking for the measured self-splicing fitness (ln) of GCAUAGCAAUAUUACGAACU , can you help?
## Output -0.315

## Input Looking for the measured self-splicing fitness (ln) of CGAAAGCAAUAUUACGGUGU , can you help?
## Output -1.66

## Input Looking for the measured self-splicing fitness (ln) of GGCUAGCAAUAUUACGUGUA , can you help?
## Output -0.236

## Input Looking for the measured self-splicing fitness (ln) of UUGUAGCAAUAUUACGGUUU , can you help?
## Output -1.79

## Input Looking for the measured self-splicing fitness (ln) of UACCAGCAAUAUUACGCCGA , can you help?
## Output -0.513

## Input Looking for the measured self-splicing fitness (ln) of UCUAAGCAAUAUUACGACUA , can you help?
## Output -0.59

## Input Looking for the measured self-splicing fitness (ln) of CGGCAGCAAUAUUACGUGCG , can you help?
## Output -2.54

## Input Looking for the measured self-splicing fitness (ln) of GGGGAGCAAUAUUACGCAAG , can you help?
## Output -1.28

## Input Looking for the measured self-splicing fitness (ln) of AUACAGCAAUAUUACGAUUA , can you help?
## Output -0.625

## Input Looking for the measured self-splicing fitness (ln) of ACCCAGCAAUAUUACGUACG , can you help?
## Output -1.71

## Input Looking for the measured self-splicing fitness (ln) of UUGCAGCAAUAUUACGUGUU , can you help?
## Output -2.47

## Input Looking for the measured self-splicing fitness (ln) of GCUAAGCAAUAUUACGAUCU , can you help?
## Output 0.178

## Input Looking for the measured self-splicing fitness (ln) of UCGAAGCAAUAUUACGACAG , can you help?
## Output -1.87

## Input Looking for the measured self-splicing fitness (ln) of ACCUAGCAAUAUUACGUUAC , can you help?
## Output -3.13

## Input Looking for the measured self-splicing fitness (ln) of ACUCAGCAAUAUUACGAGCC , can you help?
## Output -0.908

## Input Looking for the measured self-splicing fitness (ln) of AUGGAGCAAUAUUACGUCUU , can you help?
## Output -1.81

## Input Looking for the measured self-splicing fitness (ln) of GUCGAGCAAUAUUACGACAA , can you help?
## Output -2.85

## Input Looking for the measured self-splicing fitness (ln) of CGAGAGCAAUAUUACGCACG , can you help?
## Output -1.76

## Input Looking for the measured self-splicing fitness (ln) of UAUCAGCAAUAUUACGUGGU , can you help?
## Output -0.774

## Input Looking for the measured self-splicing fitness (ln) of AAUGAGCAAUAUUACGAGGA , can you help?
## Output -2.08

## Input Looking for the measured self-splicing fitness (ln) of UUUAAGCAAUAUUACGUUAA , can you help?
## Output -1.38

## Input Looking for the measured self-splicing fitness (ln) of AACCAGCAAUAUUACGGUGG , can you help?
## Output -1.44

## Input Looking for the measured self-splicing fitness (ln) of AUAGAGCAAUAUUACGGCUG , can you help?
## Output 0.795

## Input Looking for the measured self-splicing fitness (ln) of ACAUAGCAAUAUUACGUAUA , can you help?
## Output -1.78

## Input Looking for the measured self-splicing fitness (ln) of UGCAAGCAAUAUUACGUCAC , can you help?
## Output -2.27

## Input Looking for the measured self-splicing fitness (ln) of UUCAAGCAAUAUUACGCGAU , can you help?
## Output -3

## Input Looking for the measured self-splicing fitness (ln) of GUCCAGCAAUAUUACGUCUA , can you help?
## Output -0.668

## Input Looking for the measured self-splicing fitness (ln) of CCGAAGCAAUAUUACGUGUU , can you help?
## Output -2.89

## Input Looking for the measured self-splicing fitness (ln) of AAGCAGCAAUAUUACGCCGU , can you help?
## Output -0.738

## Input Looking for the measured self-splicing fitness (ln) of AGAAAGCAAUAUUACGCUAU , can you help?
## Output -1.62

## Input Looking for the measured self-splicing fitness (ln) of UGAUAGCAAUAUUACGUAAG , can you help?
## Output -0.601

## Input Looking for the measured self-splicing fitness (ln) of GAGGAGCAAUAUUACGAUGU , can you help?
## Output -2.69

## Input Looking for the measured self-splicing fitness (ln) of ACUUAGCAAUAUUACGGCGA , can you help?
## Output -0.343

## Input Looking for the measured self-splicing fitness (ln) of UGGGAGCAAUAUUACGAUUA , can you help?
## Output -2.1

## Input Looking for the measured self-splicing fitness (ln) of UUUCAGCAAUAUUACGAACU , can you help?
## Output 0.244

## Input Looking for the measured self-splicing fitness (ln) of GAUAAGCAAUAUUACGCACU , can you help?
## Output -0.284

## Input Looking for the measured self-splicing fitness (ln) of GCGCAGCAAUAUUACGUCUA , can you help?
## Output -0.321

## Input Looking for the measured self-splicing fitness (ln) of CCCAAGCAAUAUUACGGGAU , can you help?
## Output -2.47

## Input Looking for the measured self-splicing fitness (ln) of GCGGAGCAAUAUUACGUAAG , can you help?
## Output -0.951

## Input Looking for the measured self-splicing fitness (ln) of AAUUAGCAAUAUUACGUUCU , can you help?
## Output -0.522

## Input Looking for the measured self-splicing fitness (ln) of AUCAAGCAAUAUUACGUGUU , can you help?
## Output -1.58

## Input Looking for the measured self-splicing fitness (ln) of CUCGAGCAAUAUUACGGGCA , can you help?
## Output 0.194

## Input Looking for the measured self-splicing fitness (ln) of UUCUAGCAAUAUUACGGCCA , can you help?
## Output -1.84

## Input Looking for the measured self-splicing fitness (ln) of GCUGAGCAAUAUUACGCUUC , can you help?
## Output -3.41

## Input Looking for the measured self-splicing fitness (ln) of AACUAGCAAUAUUACGUCCA , can you help?
## Output -0.0353

## Input Looking for the measured self-splicing fitness (ln) of GCAUAGCAAUAUUACGAACC , can you help?
## Output 0.452

## Input Looking for the measured self-splicing fitness (ln) of GGCUAGCAAUAUUACGCUUC , can you help?
## Output -1.61

## Input Looking for the measured self-splicing fitness (ln) of UAGAAGCAAUAUUACGAACA , can you help?
## Output -0.859

## Input Looking for the measured self-splicing fitness (ln) of GCGCAGCAAUAUUACGAUCU , can you help?
## Output -0.141

## Input Looking for the measured self-splicing fitness (ln) of GGUUAGCAAUAUUACGAGCA , can you help?
## Output -0.264

## Input Looking for the measured self-splicing fitness (ln) of CUGGAGCAAUAUUACGCGAG , can you help?
## Output -2.47

## Input Looking for the measured self-splicing fitness (ln) of UCUUAGCAAUAUUACGUAUU , can you help?
## Output -3.54

## Input Looking for the measured self-splicing fitness (ln) of UCGGAGCAAUAUUACGUCGA , can you help?
## Output -0.949

## Input Looking for the measured self-splicing fitness (ln) of AGGAAGCAAUAUUACGACGG , can you help?
## Output -0.95

## Input Looking for the measured self-splicing fitness (ln) of AGUAAGCAAUAUUACGGGAC , can you help?
## Output -2.45

## Input Looking for the measured self-splicing fitness (ln) of GCCAAGCAAUAUUACGAAAU , can you help?
## Output -2.28

## Input Looking for the measured self-splicing fitness (ln) of ACGUAGCAAUAUUACGUCCG , can you help?
## Output -0.705

## Input Looking for the measured self-splicing fitness (ln) of GCUGAGCAAUAUUACGGGUU , can you help?
## Output -3.05

## Input Looking for the measured self-splicing fitness (ln) of CGUAAGCAAUAUUACGUUGU , can you help?
## Output -2.53

## Input Looking for the measured self-splicing fitness (ln) of AUAAAGCAAUAUUACGCUGC , can you help?
## Output -2.59

## Input Looking for the measured self-splicing fitness (ln) of GAACAGCAAUAUUACGGUCC , can you help?
## Output -0.683

## Input Looking for the measured self-splicing fitness (ln) of ACGAAGCAAUAUUACGGCCG , can you help?
## Output 0.746
